Known Ki of a selection of compounds
- Study Target: human kidney Na+/K+-ATPase (HKE) (Homo sapiens, UniProt P05023)
- Test Summary: Na+/K+-ATPase activity assay, purified human kidney enzyme
- Details: read-out: Ki, inhibition of Na+/K+-ATPase activity of HKE-1; HKE-1; 1% DMSO; optimal turnover conditions (Figure 4A)
Report the figure in µM without appending any unit label.

compound="C[C@]12CC[C@H](O)C[C@@]1(O)CC[C@@H]1[C@@H]2CC[C@]2(C)[C@@H](c3ccc(=O)oc3)C[C@H]3O[C@]132 [MBG, marinobufagenin]" recorded_number=1.07

Now examine the next entry.
Ask | Record request: Ki value, item C[C@]12C[C@@H](O)[C@H]3[C@@H](CC[C@]4(O)C[C@@H](O)C[C@@H](O)[C@]34CO)[C@@]1(O)CC[C@@H]2C1=CC(=O)OC1 [ouabagenin]
Reply | 4.4

###

- Study Target: pig kidney Na+/K+-ATPase (PKE) (Sus scrofa)
- Test Summary: Na+/K+-ATPase activity assay, purified pig kidney enzyme
- Format: biochemical
- Details: read-out: Ki, inhibition of Na+/K+-ATPase activity of PKE; 1% DMSO; PKE-1 or PKE-2; optimal turnover conditions (Figure 3)
Endpoint Label: Ki (nM)
Output spec: scalar in nM, unitless text.

compound="C[C@]12C[C@@H](O)[C@H]3[C@@H](CC[C@]4(O)C[C@@H](O)C[C@@H](O)[C@]34CO)[C@@]1(O)CC[C@@H]2C1=CC(=O)OC1 [ouabagenin]" study_target="pig kidney Na+/K+-ATPase (PKE) (Sus scrofa)" recorded_number=3070

Then this compound:
Ask | For pig kidney Na+/K+-ATPase (PKE) (Sus scrofa), provide Ki of C[C@]12CC[C@H](O)C[C@@]1(O)CC[C@@H]1[C@@H]2CC[C@]2(C)[C@@H](c3ccc(=O)oc3)C[C@H]3O[C@]132 [MBG, marinobufagenin] please.
Reply | 1500
